- method notes: In vitro intrinsic clearance assay (CLint (m))
- Assay type: in vitro ADME
- condition parameters: female CD1 mouse liver microsomes, 0.5 μM compound
CLint (m) reference
quantity name: CLint (m)

>>> df
                                smiles_repr  quantity_name                     reading
0  Cc1cc(CN2C(=O)COc3cc(CCCOC[C@@H]4CCN(C)C4)ccc32)no1      CLint (m)  7.0 mL min^−1 (g liver)^−1
1  Cc1cc(CN2C(=O)COc3c(CCCCC4CCNCC4)cccc32)no1      CLint (m)  2.0 mL min^−1 (g liver)^−1
2  Cc1cc(CN2C(=O)COc3c(CCCCC4CCN(C)CC4)cccc32)no1      CLint (m)   10 mL min^−1 (g liver)^−1
3  Cc1cc(CN2C(=O)COc3cc(CCCCC4CCN(C)CC4)ccc32)no1      CLint (m)   12 mL min^−1 (g liver)^−1

* * *

- tested on: TbNMT (Trypanosoma brucei brucei, UniProt Q388H8)
- Sequence (Q388H8 1-446): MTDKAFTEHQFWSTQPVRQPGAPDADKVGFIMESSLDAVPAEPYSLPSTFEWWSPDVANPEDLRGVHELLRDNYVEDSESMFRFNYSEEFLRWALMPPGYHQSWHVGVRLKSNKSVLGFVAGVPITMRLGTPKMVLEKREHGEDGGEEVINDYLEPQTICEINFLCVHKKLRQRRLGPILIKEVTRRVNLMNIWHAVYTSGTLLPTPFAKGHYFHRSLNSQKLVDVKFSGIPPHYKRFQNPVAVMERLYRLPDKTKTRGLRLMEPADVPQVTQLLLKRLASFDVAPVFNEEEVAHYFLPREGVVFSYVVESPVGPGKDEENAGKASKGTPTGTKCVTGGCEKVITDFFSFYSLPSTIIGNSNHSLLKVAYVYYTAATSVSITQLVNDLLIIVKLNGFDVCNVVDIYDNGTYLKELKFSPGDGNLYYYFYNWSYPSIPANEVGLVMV
- method notes: biochemical
- Format: biochemical
- condition parameters: mean of two or more determinations; read-out: IC50 TbNMT
quantity name: IC50 (µM)

                                    compound                                 tested_on  units_symbol  bound_sign  reading
 0  Cc1cc(CN2C(=O)COc3cc(Cl)ccc32)no1 [Compound 36]  TbNMT (Trypanosoma brucei brucei, UniProt Q388H8)            µM           =      7.1
 1  Cc1cc(CN2C(=O)COc3ccccc32)no1 [Compound 23]  TbNMT (Trypanosoma brucei brucei, UniProt Q388H8)            µM           =      2.9
 2  CC(C)Cc1nc(CN2C(=O)COc3ccccc32)no1 [Compound 29]  TbNMT (Trypanosoma brucei brucei, UniProt Q388H8)            µM           =       18
 3  COc1cc(C2SCC(=O)N2Cc2ccccc2)ccc1O (stereo not shown) [Compound 1]  TbNMT (Trypanosoma brucei brucei, UniProt Q388H8)            µM           =       22
 4   O=C1COc2ccccc2N1Cc1ccccn1 [Compound 25]  TbNMT (Trypanosoma brucei brucei, UniProt Q388H8)            µM           =       22
 5  Cc1cc(CN2C(=O)COc3c(CCCCN4CCCN(C)CC4)cccc32)no1 [Compound 40]  TbNMT (Trypanosoma brucei brucei, UniProt Q388H8)            µM           <    0.002
 6  O=C(CCN1C(=O)COc2ccccc21)N1CCCC1 [Compound 17]  TbNMT (Trypanosoma brucei brucei, UniProt Q388H8)            µM           =       11
 7  O=C1CSC(c2ccccn2)N1c1ccc2ccccc2c1 (stereo not shown) [Compound 8]  TbNMT (Trypanosoma brucei brucei, UniProt Q388H8)            µM           >      100
 8   O=C1COc2ccccc2N1Cc1ccncc1 [Compound 26]  TbNMT (Trypanosoma brucei brucei, UniProt Q388H8)            µM           >      100
 9  Cc1cc(CN2C(=O)COc3cc(CCCOC[C@@H]4CCN(C)C4)ccc32)no1 [Compound 42]  TbNMT (Trypanosoma brucei brucei, UniProt Q388H8)            µM           =    0.009
10  O=C1COc2ccccc2N1Cc1nc2ccccc2o1 [Compound 22]  TbNMT (Trypanosoma brucei brucei, UniProt Q388H8)            µM           =       24
11  CCN1C(=O)CSC1c1ccc(O)c(OC)c1 (stereo not shown) [Compound 3]  TbNMT (Trypanosoma brucei brucei, UniProt Q388H8)            µM           >      100
12  CCOC(=O)C(C)N1C(=O)COc2ccccc21 (stereo not shown) [Compound 15]  TbNMT (Trypanosoma brucei brucei, UniProt Q388H8)            µM           >      100
13  CC(C)Cc1cc(CN2C(=O)COc3ccccc32)no1 [Compound 30]  TbNMT (Trypanosoma brucei brucei, UniProt Q388H8)            µM           =        9
14  COc1cccc(C2SCC(=O)N2Cc2ccco2)c1 (stereo not shown) [Compound 5]  TbNMT (Trypanosoma brucei brucei, UniProt Q388H8)            µM           >      100
15  O=C1CSC(c2ccccn2)N1c1cccc(Cl)c1 (stereo not shown) [Compound 7]  TbNMT (Trypanosoma brucei brucei, UniProt Q388H8)            µM           =       13
16  O=C(CN1C(=O)COc2ccccc21)N1CCCC1 [Compound 21]  TbNMT (Trypanosoma brucei brucei, UniProt Q388H8)            µM           >      100
17  Cc1nc(CN2C(=O)COc3ccccc32)cs1 [Compound 24]  TbNMT (Trypanosoma brucei brucei, UniProt Q388H8)            µM           =       44
18  COc1cc(C2SCC(=O)N2Cc2ccco2)ccc1O (stereo not shown) [Compound 2]  TbNMT (Trypanosoma brucei brucei, UniProt Q388H8)            µM           =      7.6
19  O=C1CSC(c2ccccn2)N1c1ccc(Cl)cc1 (stereo not shown) [Compound 10]  TbNMT (Trypanosoma brucei brucei, UniProt Q388H8)            µM           >      100
20  O=C1CSC(c2ccccc2)N1Cc1ccccn1 (stereo not shown) [Compound 12]  TbNMT (Trypanosoma brucei brucei, UniProt Q388H8)            µM           =      5.9
21  Cc1cc(CN2C(=O)C(C)Oc3ccccc32)no1 (stereo not shown) [Compound 34]  TbNMT (Trypanosoma brucei brucei, UniProt Q388H8)            µM           >      100
22  Cc1cc(CN2C(=O)COc3c(Br)cccc32)no1 [Compound 38]  TbNMT (Trypanosoma brucei brucei, UniProt Q388H8)            µM           =       11
23  CN(C)C(=O)CN1C(=O)COc2ccccc21 [Compound 19]  TbNMT (Trypanosoma brucei brucei, UniProt Q388H8)            µM           >      100
24  Cn1ccc(CN2C(=O)COc3ccccc32)n1 [Compound 32]  TbNMT (Trypanosoma brucei brucei, UniProt Q388H8)            µM           =       80

* * *

- tested on: TbNMT (Trypanosoma brucei brucei, UniProt Q388H8)
- method notes: biochemical
- Format: biochemical
- condition parameters: mean of two or more determinations; read-out: IC50 TbNMT
pIC50: −log10 of the molar value.
quantity name: pIC50

                                    compound  quantity_name  bound_sign  reading
 0             Cc1noc(CN2C(=O)COc3ccccc32)n1          pIC50           <     4.00
 1            Cc1cccc(CN2C(=O)COc3ccccc32)n1          pIC50           =     4.39
 2             Cc1nc(CN2C(=O)COc3ccccc32)no1          pIC50           =     5.15
 3         Cc1cc(CN2C(=O)COc3cc(Br)ccc32)no1          pIC50           =     5.19
 4  O=C1CSC(c2ccccn2)N1c1ccccc1Cl (centres unmarked)          pIC50           =     4.49
 5         Cc1cc(CN2C(=O)COc3ccc(Cl)cc32)no1          pIC50           <     4.00
 6  O=C1CSC(c2ccccn2)N1c1ccccc1 (centres unmarked)          pIC50           =     4.51
 7                CNC(=O)CN1C(=O)COc2ccccc21          pIC50           <     4.00
 8            CN(C)C(=O)CCN1C(=O)COc2ccccc21          pIC50           =     4.30
 9  COc1cc(C2SCC(=O)N2c2ccccn2)ccc1O (centres unmarked)          pIC50           <     4.00
10              CCOC(=O)CCN1C(=O)COc2ccccc21          pIC50           =     4.89
